Published log10 of IC50 for Non-receptor tyrosine-protein kinase TYK2 (Homo sapiens, UniProt P29597), assembled from different documents, is shown next.
Reminder: these figures are log10 of reported IC50, in nM before transformation.

As a guide, the following entries are already answered.
Cc1[nH]nc2[nH]c(=O)cc([C@H]3C[C@H]4C[C@@H]3C[C@H]4CC#N)c12    2.52
CC1(C)[C@H](Nc2c(C(N)=O)cnn3cccc23)CC[C@]1(C)O (racemic)    2.32

Problem: Return reported log10 of IC50 for target or system Non-receptor tyrosine-protein kinase TYK2 (Homo sapiens, UniProt P29597), item Cc1[nH]nc2[nH]c(=O)cc(C3CC4CCC3CC4)c12 (racemic) .
Result: 2.34

Problem: Provide log10 of IC50, system Non-receptor tyrosine-protein kinase TYK2 (Homo sapiens, UniProt P29597), entry Cc1[nH]nc2[nH]c(=O)cc([C@H]3C[C@H]4CC[C@@H]3C4)c12 (racemic)
Result: 2.63

Problem: State measured log10 of IC50 of the compound CN1CCN(C(=O)c2ccc3c(c2)[nH]c2c(C(N)=O)ccc(-c4cccc(NC(=O)c5ccc(N(C)C)cc5)c4F)c23)CC1 with Non-receptor tyrosine-protein kinase TYK2 (Homo sapiens, UniProt P29597).
Sequence (P29597 whole entry): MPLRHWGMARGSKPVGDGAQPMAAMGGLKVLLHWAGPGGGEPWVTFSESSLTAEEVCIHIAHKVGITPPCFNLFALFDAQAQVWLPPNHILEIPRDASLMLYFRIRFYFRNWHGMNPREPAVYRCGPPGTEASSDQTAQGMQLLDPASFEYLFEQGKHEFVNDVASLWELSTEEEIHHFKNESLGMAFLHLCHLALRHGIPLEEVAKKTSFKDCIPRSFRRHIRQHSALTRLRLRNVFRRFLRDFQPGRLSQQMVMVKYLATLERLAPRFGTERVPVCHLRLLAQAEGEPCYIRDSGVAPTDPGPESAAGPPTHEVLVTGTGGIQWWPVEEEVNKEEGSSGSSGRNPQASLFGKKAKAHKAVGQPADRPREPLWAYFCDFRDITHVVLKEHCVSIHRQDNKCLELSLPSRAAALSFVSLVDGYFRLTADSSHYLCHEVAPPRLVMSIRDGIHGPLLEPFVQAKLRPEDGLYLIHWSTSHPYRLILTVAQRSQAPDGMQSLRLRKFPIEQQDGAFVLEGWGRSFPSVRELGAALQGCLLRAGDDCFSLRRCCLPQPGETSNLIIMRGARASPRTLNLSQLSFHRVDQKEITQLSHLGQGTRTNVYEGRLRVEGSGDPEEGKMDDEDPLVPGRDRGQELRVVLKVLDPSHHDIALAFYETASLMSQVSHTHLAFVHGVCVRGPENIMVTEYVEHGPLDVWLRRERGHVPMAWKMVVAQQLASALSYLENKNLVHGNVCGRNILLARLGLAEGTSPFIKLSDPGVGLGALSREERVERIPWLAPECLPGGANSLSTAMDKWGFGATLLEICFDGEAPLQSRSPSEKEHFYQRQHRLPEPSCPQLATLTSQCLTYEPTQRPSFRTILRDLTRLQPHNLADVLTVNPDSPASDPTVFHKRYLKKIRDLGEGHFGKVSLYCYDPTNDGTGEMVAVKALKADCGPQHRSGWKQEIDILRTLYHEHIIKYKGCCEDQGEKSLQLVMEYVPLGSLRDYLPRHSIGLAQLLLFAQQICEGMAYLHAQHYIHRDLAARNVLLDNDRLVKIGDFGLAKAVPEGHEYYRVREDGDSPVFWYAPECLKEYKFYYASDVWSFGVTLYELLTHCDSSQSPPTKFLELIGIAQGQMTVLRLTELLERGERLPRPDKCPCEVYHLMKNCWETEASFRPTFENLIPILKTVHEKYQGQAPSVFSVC
Result: 4.16

Problem: Find log10 of IC50 for Cc1cnc(Nc2cnn(C)c2)nc1-c1cnn(CCC#N)c1 on Non-receptor tyrosine-protein kinase TYK2 (Homo sapiens, UniProt P29597) and write it down.
Result: 0.53

Problem: Give reported log10 of IC50 for CC(Oc1cc(-c2cccc(N3CCNCC3)c2)cnc1N)c1cc(F)ccc1Cl (centres undefined) (Non-receptor tyrosine-protein kinase TYK2 (Homo sapiens, UniProt P29597))
Result: 3.40

Problem: For Non-receptor tyrosine-protein kinase TYK2 (Homo sapiens, UniProt P29597), give the measured log10 of IC50 of the entry COc1ccnc2c(F)cc(Nc3nn([C@H]4COCC[C@@H]4C#N)cc3C(N)=O)cc12
Result: 0.90
